# Test system: DAPK2
# ASSAY CONDITIONS: concentration: 1 μM, replicates: in singlicate; n = 1;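 also: KINOMEscan kinase panel screen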
# %Inh per entry
Please reply with the bare figure in % and do not write the unit itself.

Note to self: %Inh recorded for COC(=O)c1c(-c2ccccc2)c2cc(OC)ccc2c(=O)n1Cc1ccccc1 was 2

###

# System: DCAMKL1
# Construct: gene DCLK1
# ASSAY CONDITIONS: concentration: 1 μM, replicates: in singlicate; n = 1
Below is a list of entries, each paired with its recorded %Inh value.
Hi! Could you send only the number? It should be in %, unit omitted.

Example entries begin here.
Cc1cccc(-c2nc(C)cc(Nc3ccncc3)n2)n1	11
CN1C(=O)C(Nc2ccc(Cl)c(C(=O)O)c2)=C(c2ccc(Cl)cc2)C1=O	0
Cl.Oc1ccc(-c2nc(-c3ccccc3)[nH]c2-c2ccncc2)cc1	6
COC(=O)c1c(-c2ccccc2)c2cc(OC)ccc2c(=O)n1Cc1ccccc1	12
Cn1ccc2ncnc(Oc3ccc(NC(=O)Nc4ccccc4)cc3)c21	23

Lookup result for Cc1cc(-c2ccc3c(c2)CC[C@@H](N[C@@H](C)c2ccccc2)C3)cnc1N.Cl ; measured %Inh: 0

The measured %Inh associated with CC1=C(C(=O)Nc2cc3cn[nH]c3cc2F)C(c2ccc(C(F)(F)F)cc2)CC(=O)N1 (stereo not drawn) reads 4

Input Cc1cccc(-c2nc(Nc3cccc(C(N)=O)c3)c3ccccc3n2)n1 . Output %Inh: 36

Looking up COc1ccccc1CNC(=O)c1cc(C(=O)c2ccccc2C)c[nH]1 , I found its %Inh recorded as 16

Cited source for all entries: paper PMC5540273
